Field: Percent Effect. Provide a value for each of the compounds that follow.
test system: Plasmodium falciparum; assay: Calibr Malaria Delayed Death Assay SOP; type: functional, organism-based; set-up: scale not given: in the data most compounds retested in dose-response had high values; settings: concentration 4.99e-06 (unit not given; other assays of the set use mol/L)
Screen size: about 38,000 compounds; about 1,200 (3.2%) showed an effect of 50% or more. The median lay at about -58%. This excerpt belongs to a sample that is enriched for strong results.
Lab book: enter the figure in %, no units written.

Input: # lookup: Percent Effect of CCN1CCn2c(C)cnc2C12CCN(C(=O)Cc1ccccc1)CC2.O=C(O)C(F)(F)F.O=C(O)C(F)(F)F
Output: -58.2

Input: Name the recorded Percent Effect for CC(C)n1c(=O)c2ccccc2n(CCN(C)C)c1=O.Cl .
Output: 33.53

Input: Which Percent Effect value is on record for CC(NC(=O)N1CCNC(=O)CC1)c1c(F)cccc1Cl (stereo unspecified) ?
Output: -91.59

Input: Endpoint output: Percent Effect of CCCNC(=O)c1cc2c(s1)CCN2C(=O)c1ccccc1 . Value?
Output: -140.9

Input: Need Percent Effect, item OC(CN1CCOCC1)c1cc(Cl)ccc1Cl (stereo unspecified)
Output: -41.91

Input: Which value of Percent Effect has been reported for CN(C)CCn1c(=O)n(C)c(=O)c2ccccc21.Cl in the records?
Output: -12.02

Input: Value lookup for Percent Effect; key = Nc1nccc(N2CCC(c3cc(Cc4ccccc4)n[nH]3)CC2)n1
Output: 35.49

Input: Reported Percent Effect, compound Cc1ccccc1N1CC2(CCN(S(=O)(=O)C3CC3)C2)CC1=O (stereo unspecified) : ____
Output: -190.8

Input: I have this compound here, O=C(O)C(F)(F)F.O=C(c1ccncc1F)N1CC[C@@H]2CN(c3ncccn3)CCO[C@@H]2C1 , and I need its recorded Percent Effect.
Output: -33.14

Input: Which Percent Effect reading was recorded for the compound CN(C)C(=O)CCS(=O)(=O)Cc1cc(Cl)c2c(c1)OCO2 ?
Output: -99.04

Input: Endpoint output: Percent Effect of CCOCCN1CCN(CC(O)c2ccc(C)c(C)c2)CC1 (stereo unspecified) . Value?
Output: -16.95

This collection of values is drawn from ChEMBL document CHEMBL3988442.
